- Tested on: HCC-2998
- assay.overview: NCI 60 cell panel SRB screen
- Assay type: cell-based
- conditions: Homo sapiens; HCC-2998, single dose 10 μM; read-out: percent cell growth promotion
experimental.readout: activity at 10 µM
Just so you know, I need the unit written after the number.

Look over these answered cases.
- compound: "CCOC(=O)N1CCN(c2nncc3ccccc23)CC1"
  experimental.readout: "activity at 10 µM"
  experimental.value: "117%"
- compound: "O=C(Nc1ccc(Cl)cc1)Nc1ccc(Nc2nncc3ccccc23)cc1"
  experimental.readout: "activity at 10 µM"
  experimental.value: "30.7%"
- compound: "Cc1nnc(N2CCN(c3ccccn3)CC2)c2ccccc12"
  experimental.readout: "activity at 10 µM"
  experimental.value: "102%"

Task: Need activity at 10 µM of O=C(Nc1ccc(Cl)cc1)Nc1ccc(Oc2nnc(Cl)c3ccccc23)cc1 [Compound 13b] , thanks.
Output: 115%

Task: And for O=C(Nc1ccccc1)Nc1ccc(Oc2nnc(Cl)c3ccccc23)cc1 [Compound 13a] ?
Output: 52.9%
